- Assay Comment: Antioxidant activity assessed as nitric oxide scavenging activity after 150 mins by Greiss method
- Type: functional
Readout Label: IC50 (µM)
Give bare numbers, in µM.

Examples with answers:
Look up and report measured IC50 for this entry: COc1cc2c(cc1-c1c(OC)ccc3c1[nH]c1c4c(c(C)cc13)OC(C)(C/C=C(\C)CCC=C(C)C)C=C4)c1cc(C)c3c(c1n2C)C=CC(C)(C/C=C(\C)CCC=C(C)C)O3 (stereo not given) 8.6

Look up and report measured IC50 for this entry: `C[C@@H]1O[C@@H](OC[C@H]2O[C@@H](Oc3c(-c4ccc(O)c(O)c4)oc4cc(O)cc(O)c4c3=O)[C@H](O)[C@@H](O)[C@@H]2O)[C@H](O)[C@H](O)[C@H]1O` 4.7

Look up and report measured IC50 for this entry: COc1ccc2c([nH]c3c4c(c(C)cc32)OC(C)(C/C=C(\C)CCC=C(C)C)C=C4)c1-c1c(O)ccc2[nH]c3c4c(c(C)cc3c12)OC(C)(C/C=C(\C)CCC=C(C)C)C=C4 (stereo not given) 6.5

Look up and report measured IC50 for this entry: Cc1cc(C(C)(C)C)c(O)c(C(C)(C)C)c1 [BUTYLATED HYDROXYTOLUENE] 8.6

---
Look up and report measured IC50 for this entry: COc1ccc2c([nH]c3c4c(c(C)cc32)OC(C)(C/C=C(\C)CCC=C(C)C)C=C4)c1-c1ccc2[nH]c3c4c(c(C)cc3c2c1O)OC(C)(C/C=C(\C)CCC=C(C)C)C=C4 (stereo not given) 7.2
